These entries and their values trace back to patent US4992442A.

Test system: basilar artery
Test: Vasodilative activity, Magnus method, dog basilar artery contracted with potassium chloride
Settings: Canis lupus familiaris; 60 mM potassium chloride; read-out: 50% Contraction-inhibitive Concentrations, Basilar Artery, KCl
Description: A bastard, male, adult dog weighing about 8-10 kg was anesthetized with pentobarbital sodium (25 mg/kg, i.v.) and killed by bleeding. Its basilar and coronary arteries were immediately extracted. […] Static tensions of the ring were isometrically measured and recorded. […] The vasodilative activity and coronary blood flow increase activity were respectively measured according to the following Methods 1 and 2. […]
measurement-name: IC50

Reference set, count: 4
molecule: Cc1nc2c(C#N)cnn2c2c1CCN2CC(C)C [Compound No. 4]
measurement-name: IC50
recorded-result: 43 µM
//
molecule: Cc1nc2c(C#N)cnn2c2c1CCN2N1CCOCC1 [Compound No. 10]
measurement-name: IC50
recorded-result: > 100 µM
//
molecule: Cc1nc2c(C#N)cnn2c2c1CCN2CC1CCCCC1 [Compound No. 9]
measurement-name: IC50
recorded-result: > 100 µM
//
molecule: Cc1nc2c(C#N)cnn2c2c1CCN2C(C)(C)C [Compound No. 1]
measurement-name: IC50
recorded-result: > 100 µM

Report IC50 for CCCCCN1CCc2c(C)nc3c(C#N)cnn3c21 [Compound No. 6] please.
> 100 µM

* * *

system: trachea; experiment: Tracheal expansion activity against histamine (His) induced tracheal contraction; parameters: species or system Hartley guinea pig; conditions: reverse ratio of 50% contraction-inhibitive concentration to that of theophylline
Listing of recorded Ratio of Effectiveness, His Contraction by entry.
Please give only the number in your answer, with no unit.

structure-smiles-string: Cc1nc2c(C#N)cnn2c2c1CCN2N1CCOCC1
Ratio of Effectiveness, His Contraction: 1.3

structure-smiles-string: Cc1nc2c(C#N)cnn2c2c1CCN2C1CCCC1
Ratio of Effectiveness, His Contraction: 6.3

What value of measured Ratio of Effectiveness, His Contraction is listed for CCCCCCN1CCc2c(C)nc3c(C#N)cnn3c21 ?
0.5

Same question, Cc1nc2c(C#N)cnn2c2c1CCN2C(C)(C)C this time
4.9

Try this molecule next: CCCCCN1CCc2c(C)nc3c(C#N)cnn3c21
0.4

* * *

System: coronary artery
Assay: Vasodilative activity, Magnus method, dog coronary artery ring contracted with U-46619
Settings: Canis lupus familiaris, U-46619 1×10^-7 M, read-out: 50% Contraction-inhibitive Concentrations
Experimental: Vasodilative activity of the compound of the present invention was measured by the Magnus method. A bastard, male, adult dog weighing about 8-10 kg was anesthetized with pentobarbital sodium (25 mg/kg, i.v.) and killed by bleeding. Its basilar and coronary arteries were immediately extracted. […] Static tensions of the ring were isometrically measured and recorded. […]
measurement-name: IC50 (nM)
Provide the reading as a plain figure in nM.

Would you mind telling me what IC50 value was observed for Cc1nc2c(C#N)cnn2c2c1CCN2C(C)(C)C ?
1600

What do you get for Cc1nc2c(C#N)c(C)nn2c2c1CCN2C(C)(C)C ?
1800

* * *

test system: basilar artery; test: Vasodilative activity, Magnus method, dog basilar artery contracted with PGF2 α; settings: Canis lupus familiaris; PGF2 α 5×10^-6 M; read-out: 50% Contraction-inhibitive Concentrations, Basilar Artery, PGF2 α
pIC50: −log10 of the molar value.
measurement-name: pIC50

Example entries and their recorded answers appear below.
compound: Cc1nc2ccnn2c2c1CCN2C(C)(C)C
measurement-name: pIC50
recorded-result: 5.10
//
compound: Cc1nc2c(C#N)cnn2c2c1CCN2N1CCOCC1
measurement-name: pIC50
recorded-result: < 4.00
//
compound: CCC(C)N1CCc2c(C)nc3c(C#N)cnn3c21 (stereo not shown)
measurement-name: pIC50
recorded-result: 5.60

Requested field: pIC50. Item: CCCCCN1CCc2c(C)nc3c(C#N)cnn3c21
< 4.00

Next record, please: CCCCN1CCc2c(C)nc3c(C#N)cnn3c21
< 4.00

Field entry: CCCCCCN1CCc2c(C)nc3c(C#N)cnn3c21
< 4.00

Next record, please: Cc1nc2c(C#N)cnn2c2c1CCN2C(C)(C)C
5.80

Could you do the same for Cc1nc2c(C#N)cnn2c2c1CCN2CC(C)C , please?
< 4.00

What do we get for Cc1nc2c(C#N)cnn2c2c1CCN2C1CCCC1 ?
< 4.00

Thanks! And Cc1nc2c(C#N)cnn2c2c1CCN2CC1CCCCC1 ?
< 4.00

* * *

tested on: coronary artery; assay: Vasodilative activity, Magnus method, dog coronary artery contracted with PGF2 α; conditions: Canis lupus familiaris; PGF2 α 5×10^-6 M; read-out: 50% Contraction-inhibitive Concentrations, Coronary Artery, PGF2 α
measurement-name: IC50 (µM)
Entry rule: numbers only, all in µM.

Completed entries (count: 4):
compound: Cc1nc2c(C#N)cnn2c2c1CCN2C1CCCC1
recorded-result: 0.2

compound: Cc1nc2c(C#N)cnn2c2c1CCN2CC(C)C
recorded-result: 25

compound: Cc1nc2c(C#N)cnn2c2c1CCN2C(C)(C)C
recorded-result: 1.3

compound: Cc1nc2ccnn2c2c1CCN2C(C)(C)C
recorded-result: 3.2

Entry CCC(C)N1CCc2c(C)nc3c(C#N)cnn3c21 (stereo not shown) has what IC50?
3.2

* * *

# Ratio of Effectiveness, His Contraction annotations
test system: trachea; experiment: Tracheal expansion activity against histamine (His) induced tracheal contraction; parameters: species or system Hartley guinea pig; details: reverse ratio of 50% contraction-inhibitive concentration to that of theophylline
Enter a number only.

Answered cases to consult:
compound: CCC(C)N1CCc2c(C)nc3c(C#N)cnn3c21 (stereo not drawn)
recorded-result: 15.8
//
compound: Cc1nc2ccnn2c2c1CCN2C(C)(C)C
recorded-result: 1.0

Which Ratio of Effectiveness, His Contraction is reported for this compound? CCCCN1CCc2c(C)nc3c(C#N)cnn3c21
2.1

* * *

Test system: basilar artery
Assay: Vasodilative activity, Magnus method, dog basilar artery contracted with potassium chloride
Details: Canis lupus familiaris; 60 mM potassium chloride; read-out: 50% Contraction-inhibitive Concentrations, Basilar Artery, KCl
Protocol: A bastard, male, adult dog weighing about 8-10 kg was anesthetized with pentobarbital sodium (25 mg/kg, i.v.) and killed by bleeding. Its basilar and coronary arteries were immediately extracted. […] Static tensions of the ring were isometrically measured and recorded. […] The vasodilative activity and coronary blood flow increase activity were respectively measured according to the following Methods 1 and 2. […]
measurement-name: pIC50
Hey, just a heads up that pIC50 is the negative log base 10 of the concentration in molar.

Example entries begin here.
structure-smiles-string: Cc1nc2ccnn2c2c1CCN2C(C)(C)C
pIC50: 5.00
//
structure-smiles-string: CCCCN1CCc2c(C)nc3c(C#N)cnn3c21
pIC50: 4.47

Please report the recorded pIC50 for CCCCCCN1CCc2c(C)nc3c(C#N)cnn3c21 .
4.07

* * *

experiment: Acute toxicity test, oral, mice; conditions: mouse, in vivo, ICR male mice, 14 days observation
# LD50 at 336 h per entry

Look over these answered cases.
compound: Cc1nc2c(C#N)cnn2c2c1CCN2CC(C)C
LD50 at 336 h: ≥ 1000 mg/kg
//
compound: Cc1nc2c(C#N)c(C)nn2c2c1CCN2C(C)(C)C
LD50 at 336 h: ≥ 2000 mg/kg
//
compound: CCC(C)N1CCc2c(C)nc3c(C#N)cnn3c21 (centres unmarked)
LD50 at 336 h: ≥ 1000 mg/kg
//
compound: Cc1nc2c(C#N)cnn2c2c1CCN2C(C)(C)C
LD50 at 336 h: ≥ 2000 mg/kg
//
compound: CCCCCN1CCc2c(C)nc3c(C#N)cnn3c21
LD50 at 336 h: ≥ 1000 mg/kg
//
compound: Cc1nc2c(C#N)cnn2c2c1CCN2N1CCOCC1
LD50 at 336 h: ≥ 1000 mg/kg
//
compound: CCCCN1CCc2c(C)nc3c(C#N)cnn3c21
LD50 at 336 h: ≥ 1000 mg/kg
//
compound: Cc1nc2c(C#N)cnn2c2c1CCN2C1CCCC1
LD50 at 336 h: ≥ 1000 mg/kg
//
compound: Cc1nc2c(C#N)cnn2c2c1CCN2CC1CCCCC1
LD50 at 336 h: ≥ 1000 mg/kg
//
compound: Cc1nc2ccnn2c2c1CCN2C(C)(C)C
LD50 at 336 h: ≥ 1000 mg/kg

# context switch: different compound, same LD50 at 336 h
Fill in the blank: the reported LD50 at 336 h of CCCCCCN1CCc2c(C)nc3c(C#N)cnn3c21 is ____.
≥ 1000 mg/kg
